Listed here are sequences together with their documented Day 12 Donors.
- Test system: autologous responder cells (monocyte-depleted PBMC) from HLA-A*0201-negative donors
- protocol.description: Induction of pentamer positive CD8+ T cells by peptide-pulsed HLA-A*0201-transfected moDC (Example 8)
- Format: cell-based, human
- test.conditions: donors with positive response / donors tested, day 12
readout: Day 12 Donors

[
  {
    "chain": "VLWHWLLRT (homo sapiens) [Peptide 105, from CD19]",
    "tested.system": "autologous responder cells (monocyte-depleted PBMC) from HLA-A*0201-negative donors",
    "value.reported": "0/2"
  },
  {
    "chain": "KIVEWDWKI (homo sapiens) [Peptide 109, from CD48]",
    "tested.system": "autologous responder cells (monocyte-depleted PBMC) from HLA-A*0201-negative donors",
    "value.reported": "1/2"
  },
  {
    "chain": "ALAVISFLL (homo sapiens) [Peptide 114, from CD7]",
    "tested.system": "autologous responder cells (monocyte-depleted PBMC) from HLA-A*0201-negative donors",
    "value.reported": "0/2"
  },
  {
    "chain": "RLYQFLLDL (homo sapiens) [Peptide 66, from PU.1]",
    "tested.system": "autologous responder cells (monocyte-depleted PBMC) from HLA-A*0201-negative donors",
    "value.reported": "0/2"
  },
  {
    "chain": "LLFLTPMEV (homo sapiens) [Peptide 108, from CD19]",
    "tested.system": "autologous responder cells (monocyte-depleted PBMC) from HLA-A*0201-negative donors",
    "value.reported": "1/2"
  },
  {
    "chain": "LLQRPGLQL (homo sapiens) [Peptide 126, from CD64]",
    "tested.system": "autologous responder cells (monocyte-depleted PBMC) from HLA-A*0201-negative donors",
    "value.reported": "1/2"
  },
  {
    "chain": "LIQPFMFRL (homo sapiens) [Peptide 84, from MPO]",
    "tested.system": "autologous responder cells (monocyte-depleted PBMC) from HLA-A*0201-negative donors",
    "value.reported": "0/5"
  },
  {
    "chain": "SLWRRPFNV (homo sapiens) [Peptide 22, from MPO]",
    "tested.system": "autologous responder cells (monocyte-depleted PBMC) from HLA-A*0201-negative donors",
    "value.reported": "0/2"
  },
  {
    "chain": "LLWAGALAM (homo sapiens) [Peptide 86, from CD33]",
    "tested.system": "autologous responder cells (monocyte-depleted PBMC) from HLA-A*0201-negative donors",
    "value.reported": "2/4"
  },
  {
    "chain": "YLHVALDLL (homo sapiens) [Peptide 107, from MPO]",
    "tested.system": "autologous responder cells (monocyte-depleted PBMC) from HLA-A*0201-negative donors",
    "value.reported": "0/2"
  }
]

Just for reference, patent US20110142842A1 is where these values come from.
